src = patent US20230147840A1

- TARGET_OR_TEST_SYSTEM: T1, Human CD3eg linker (human)
- T1 construct: Single-chain soluble construct; also called recombinant human CD3
- T1 chain: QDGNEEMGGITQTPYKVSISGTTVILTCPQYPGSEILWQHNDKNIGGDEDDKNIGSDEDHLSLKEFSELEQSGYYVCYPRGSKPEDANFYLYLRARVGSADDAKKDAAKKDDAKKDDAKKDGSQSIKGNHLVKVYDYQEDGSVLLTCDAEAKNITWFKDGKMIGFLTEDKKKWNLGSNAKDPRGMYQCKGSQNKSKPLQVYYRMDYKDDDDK
- TEST_DETAILS: SPR Biacore 8K, Ab captured on anti-human Fc, CD3 as analyte, 25 C
Each entry gets not met if its kon stays under 100000 M⁻¹ s⁻¹, and met if its kon is 100000 M⁻¹ s⁻¹ or above.

These solved cases illustrate the format of a correct answer.
- BINDER: "H0883 (antibody, V domains shown, Dual-Ig with an Fc; also called DualAE27; dBBDu183H0883/dBBDu072L) VH: QVQLVESGGGLVQPGRSLRLSCAASGFTFSNAWMHWVRQAPGKGLEWVAQIKDKGNAYAAYYAPSVKGRFTISRDDSKNSIYLQMNSLKTEDTAVYYCRYVHYASASTLLPAFGVDAWGQGTTVTVSS VL: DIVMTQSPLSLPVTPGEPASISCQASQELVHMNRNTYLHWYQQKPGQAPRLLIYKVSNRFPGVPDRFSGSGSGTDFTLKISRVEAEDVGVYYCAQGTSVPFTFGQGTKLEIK"
  CLASS_LABEL: "not met"
- BINDER: "H1579L0581 (antibody, V domains shown, Dual-Ig with an Fc; also called DualAE25; dBBDu183H1579/dBBDu072L0581) VH: QVQLVESGGGLVQPGRSLRLSCAASGFKFSHVWFHWVRQAPGKGLEWVAQIKDKYNAYAAYYAPSVKGRFTISRDDSKNSIYLQMNSLKTEDTAVYYCHYVHYASASTLLPAFGVDAWGQGTTVTVSS VL: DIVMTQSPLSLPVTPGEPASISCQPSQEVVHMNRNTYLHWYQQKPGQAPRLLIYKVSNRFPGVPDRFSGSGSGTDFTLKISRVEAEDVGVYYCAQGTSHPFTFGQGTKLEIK"
  CLASS_LABEL: "met"
- BINDER: "H0888L0581 (antibody, V domains shown, Dual-Ig with an Fc; also called DualAE02; dBBDu183H0888/dBBDu072L0581) VH: QVQLVESGGGLVQPGRSLRLSCAASGFKFSNVWMHWVRQAPGKGLEWVAQIKDKWNAYAAYYAPSVKGRFTISRDDSKNSIYLQMNSLKTEDTAVYYCHYIHYASASTLLPAFGIDAWGQGTTVTVSS VL: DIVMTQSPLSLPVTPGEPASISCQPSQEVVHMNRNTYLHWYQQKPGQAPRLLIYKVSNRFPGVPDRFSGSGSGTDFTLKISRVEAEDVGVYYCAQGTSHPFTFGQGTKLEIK"
  CLASS_LABEL: "not met"
- BINDER: "H1644L0939 (antibody, V domains shown, Dual-Ig with an Fc; also called DualAE16; dBBDu183H1644/dBBDu072L0939) VH: QVQLVESGGGLVQPGRSLRLSCAASGFVFSNVWFHWVRQAPGKGLEWVAQIKDYYNAYAAYYAPSVKGRFTISRDDSKNSIYLQMNSLKTEDTAVYYCHYVHYASASTLLPAEGVDAWGQGTTVTVSS VL: DIVMTQSPLSLPVTPGEPASISCQPSQEVVHMNRNTYLHWYQQKPGQAPRLLIYKVSNVFPGVPDRFSGSGSGTDFTLKISRVEAEDVGVYYCAQGTHHPFTFGQGTKLEIK"
  CLASS_LABEL: "not met"

Now turn to the next binder.
Can H1595L0581 (antibody, V domains shown, Dual-Ig with an Fc; also called DualAE24; dBBDu183H1595/dBBDu072L0581) VH: QVQLVESGGGLVQPGRSLRLSCAASGFKFSNTWMHWVRQAPGKGLEWVAQIKDKYNAYAAYYAPSVKGRFTISRDDSKNSIYLQMNSLKTEDTAVYYCHYIHYASASTLLPAFGVDAWGQGTTVTVSS VL: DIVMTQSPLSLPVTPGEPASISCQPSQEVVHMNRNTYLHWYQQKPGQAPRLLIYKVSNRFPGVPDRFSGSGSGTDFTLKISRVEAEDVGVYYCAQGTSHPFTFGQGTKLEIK be said to have kon at or above 100000 M⁻¹ s⁻¹? met
